Test system: Trichomonas vaginalis
test_name: Trichomonicidal activity against Trichomonas vaginalis JH31A#4 trophozite assessed as inhibition of parasite growth at 9.37 uM after 24 hrs by resazurin redox dye based fluorimetric microtiter method
Type: functional
protocol_conditions: JH31A#4, 24 h
# binarize inhibition at 9.37 µM: threshold 10% inclusive, high side true, low side false

Decide: is the reported value of inhibition at 9.37 µM for `O=c1[nH]c2cc([N+](=O)[O-])ccc2n(CCCCCBr)c1=O` equal to or greater than 10%?
false

Please check the record `Cn1c(=O)c(=O)n(CCCCCBr)c2ccc([N+](=O)[O-])cc21` and state if its inhibition at 9.37 µM is at or above 10%.
true

Is reported inhibition at 9.37 µM greater than or equal to 10% here: `CN1C(=O)CN(CCN2CCCCC2)c2ccc([N+](=O)[O-])cc21`
false

// inclusive: inhibition at 9.37 µM at least 10%? input: Cc1ncc([N+](=O)[O-])n1CCO [METRONIDAZOLE]
true

Exam item: decide whether the reported inhibition at 9.37 µM for `Cn1c(=O)c(=O)[nH]c2cc([N+](=O)[O-])ccc21` is at least 10%.
false

Say whether `CCN(CC)CCCN1CC(=O)Nc2cc([N+](=O)[O-])ccc21.Cl` shows inhibition at 9.37 µM of 10% or more.
true

Record `CCN(CC)CCCN1CC(=O)N(C)c2cc([N+](=O)[O-])ccc21.Cl` ; criterion: inhibition at 9.37 µM no lower than 10%. Met?
false

Exam item: decide whether the reported inhibition at 9.37 µM for `Cn1c(=O)c(=O)n(C)c2cc([N+](=O)[O-])ccc21` is at least 10%.
true

I'd appreciate it if you could say whether `O=c1[nH]c2cc([N+](=O)[O-])ccc2n(CCCCCCCl)c1=O` has inhibition at 9.37 µM at least equal to 10%.
false

Identify whether the reported inhibition at 9.37 µM of the following compound is 10% or greater: `Cl.O=C1CN(CCN2CCCCC2)c2ccc([N+](=O)[O-])cc2N1`
true

Decide: inhibition at 9.37 µM of `O=C1CN(CCCO)c2ccc([N+](=O)[O-])cc2N1` >= 10%?
false

Hi, just wondering whether `CN(C)CCN1CC(=O)N(C)c2cc([N+](=O)[O-])ccc21` shows inhibition at 9.37 µM of 10% or higher.
false

Textbook exercise: given the entry `CN1C(=O)CN(CCCO)c2ccc([N+](=O)[O-])cc21` , state whether its inhibition at 9.37 µM is greater than or equal to 10%.
false

Could you please find out whether O=C1Nc2cc([N+](=O)[O-])ccc2N2CCCOC12 (configuration not stated) has inhibition at 9.37 µM that meets 10% or exceeds it?
false

Assess whether reported inhibition at 9.37 µM for `Cn1c(=O)c(=O)n(CCCCCCl)c2ccc([N+](=O)[O-])cc21` sits at 10% or higher.
true

Test whether the compound `CN(C)CCN1CC(=O)Nc2cc([N+](=O)[O-])ccc21.Cl` records inhibition at 9.37 µM of 10% or higher.
false

Check this compound for inhibition at 9.37 µM at or above 10%: `Cn1c(=O)c(=O)n(CCCCCCCl)c2ccc([N+](=O)[O-])cc21`
true

Reported inhibition at 9.37 µM at or above 10%? `Cn1c(=O)c(=O)n(CCCCCl)c2ccc([N+](=O)[O-])cc21`
true

Evaluate `CN1C(=O)CN(CCCN2CCCCC2)c2ccc([N+](=O)[O-])cc21` : inhibition at 9.37 µM at minimum 10%?
false

Given the entry `O=c1[nH]c2cc([N+](=O)[O-])ccc2n(CCCCCCl)c1=O` , answer whether its inhibition at 9.37 µM meets or surpasses 10%.
false

Please tell me: is the compound `O=c1[nH]c2cc([N+](=O)[O-])ccc2n(CCCCCl)c1=O` at or over 10% in terms of inhibition at 9.37 µM?
false

Please check the record `Cl.O=C1CN(CCCN2CCCCC2)c2ccc([N+](=O)[O-])cc2N1` and state if its inhibition at 9.37 µM is at or above 10%.
true
